tested on: Plasmodium falciparum; assay: GSK_TCMDC: Inhibition of Plasmodium falciparum 3D7 in whole red blood cells, using parasite LDH activity as an index of growth. Test compounds present at 2uM; type: functional
Measured Inhibition values are reported for all entries that follow.
State the value with its unit after it.

The following molecules have reported results that may help.
1. FC(F)(F)c1ccc(CNCC2CCN(Cc3ccc4c(c3)OCO4)CC2)cc1.O=C(O)C(F)(F)F    80%
2. CCN(CC)CCN(Cc1ccc(-c2ccc(C(F)(F)F)cc2)cc1)C(=O)Cn1c(CCc2cc(F)c(F)c(F)c2)nc(=O)c2ccccc21.O=C(O)C(O)C(O)C(=O)O    100%
3. Cc1nc(O)c2c(ccc3ccc(CN(C)c4ccc(C(=O)N[C@@H](CCC(=O)O)C(=O)O)cc4)cc32)n1    95%

Form: molecule = COc1ccc2nccc(N(C)CC3(O)CCN(CCc4ccc5c(c4)OCCO5)CC3)c2n1.Cl ; Inhibition = 100%

Form: molecule = COc1ccc(Nc2nc(C)cc(NCc3ccc(-c4c(C)noc4C)cc3)n2)cc1 ; Inhibition = 99%

Form: molecule = Oc1cc2c(cc1CN1CCN(Cc3ccccc3F)CC1)CCC2 ; Inhibition = 98%

###

system: Plasmodium falciparum; test: GSK_TCMDC: Inhibition of Plasmodium falciparum Dd2 in whole red blood cells, using parasite LDH activity as an index of growth. Test compounds present at 2uM; assay type: functional
Simple rule here: Inhibition less than 80% is rule met, otherwise rule not met.

1. COc1ccc2nccc([C@@H](O)CN3CCC(NCCOc4ccncc4)CC3)c2c1.O=C(O)C(=O)O    rule met

State whether 80% exceeds Inhibition recorded for CC1CCN(C(=O)[C@H](Cc2c[nH]c3ccccc23)NS(=O)(=O)c2ccc(Cl)cc2)CC1 . rule not met

State whether 80% exceeds Inhibition recorded for O=C(c1cc(C(=O)Nc2ccccc2)c(=O)n(-c2ccccc2)c1)c1cc(Cl)ccc1O . rule not met

###

Measured Inhibition values are reported for all entries that follow.
system: Plasmodium falciparum; assay: GSK_TCMDC: Inhibition of Plasmodium falciparum 3D7 in whole red blood cells, using parasite LDH activity as an index of growth. Test compounds present at 2uM; format: functional
Provide only the numeric value, understood in %.

The following compounds have reported results that may help.
1) O=c1ccc(CNc2nc(NCCc3ccccc3)nc3cc(Cl)ccc23)c[nH]1    95
2) CCOc1ccc2nc3cc([N+](=O)[O-])ccc3c(N)c2c1    99
3) O=C(Nc1cccc(-c2ccc(CN3CCC(O)CC3)cc2)c1)c1cccc(Cl)c1.O=C(O)C(F)(F)F    96
4) Cc1[nH]c(C)c(-c2ccc(-c3ccc(C(F)F)cc3)nc2)c(=O)c1Cl    97
5) O=C(Nc1ccc(S(=O)(=O)N2CCCC2)cc1)c1cc(-c2cccnc2)nc2ccc(Cl)cc12    97
6) Cc1csc(-c2nonc2NC(=O)COc2ccccc2C(C)C)n1    90
7) COc1ccc(NC(=O)/C=C/c2ccccc2Cl)cc1OCCN1CCC(Cc2cc3ccccc3[nH]2)CC1.Cl    92
8) COc1ccccc1CCN(C)CCN1CCC(NC(=O)c2ccc(-c3ccc(C(F)(F)F)cc3)cc2)CC1    92
9) CC(C)n1cc(CN2CCCC(C(=O)Nc3cccc(-c4cc5ccccc5[nH]4)c3)C2)cn1 (stereo not given)    96
10) COc1ccc2c(NN=Cc3cccc(F)c3)ccnc2c1    100

We now examine a further compound.
Form: compound = NC1=NC(c2ccccc2)(c2ccccc2)C(=O)N1Cc1ccc(-c2ccncc2)cc1.O=CO ; Inhibition = 96

Hello, the source for this data is ChEMBL document CHEMBL1157539, in case you need it.
